# System tested: human glucagon receptor (human) (UniProt P47871)
# Sequence (P47871 26-477): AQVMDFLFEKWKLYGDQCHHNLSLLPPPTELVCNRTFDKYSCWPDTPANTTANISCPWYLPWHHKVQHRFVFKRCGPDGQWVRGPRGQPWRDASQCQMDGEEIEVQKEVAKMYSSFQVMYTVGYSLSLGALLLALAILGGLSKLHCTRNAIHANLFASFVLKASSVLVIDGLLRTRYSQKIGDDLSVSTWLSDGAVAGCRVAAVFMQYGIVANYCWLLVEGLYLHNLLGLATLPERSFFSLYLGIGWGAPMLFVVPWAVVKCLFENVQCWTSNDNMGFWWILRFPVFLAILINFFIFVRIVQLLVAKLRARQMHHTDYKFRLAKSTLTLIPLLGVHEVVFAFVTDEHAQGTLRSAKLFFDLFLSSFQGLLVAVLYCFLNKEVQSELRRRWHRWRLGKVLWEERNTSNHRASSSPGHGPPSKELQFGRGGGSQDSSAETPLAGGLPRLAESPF
# Test protocol: cell-based or functional assay
Readout label: cAMP EC50 (nM)
Provide the reading as a plain figure in nM.

Binder: IP299 (Fc fusion) YSEGTFISDYSKLLEEEAVRDFVEWLKAGGGGGGGSGGGGSGGGGSGGGGSATHTCPPC
cAMP EC50 (nM): 53

Let us move to another entry and its cAMP EC50.
What the record says about IP351 (Fc fusion) YSEGTFISDYSIAMDKIHQQDFVNWLLAQKPSSGAPPPSGGGGSGGGGSGGGGSGGGGSACPPC : cAMP EC50 is 130
